target: CO in intact RBL-1 cells (Rattus norvegicus); construct: 5-LO and CO in intact RBL-1 cells; endogenous in cells; experiment: Procedure III: inhibition of CO in intact RBL-1 cells
Sequence (Q63921 27-602): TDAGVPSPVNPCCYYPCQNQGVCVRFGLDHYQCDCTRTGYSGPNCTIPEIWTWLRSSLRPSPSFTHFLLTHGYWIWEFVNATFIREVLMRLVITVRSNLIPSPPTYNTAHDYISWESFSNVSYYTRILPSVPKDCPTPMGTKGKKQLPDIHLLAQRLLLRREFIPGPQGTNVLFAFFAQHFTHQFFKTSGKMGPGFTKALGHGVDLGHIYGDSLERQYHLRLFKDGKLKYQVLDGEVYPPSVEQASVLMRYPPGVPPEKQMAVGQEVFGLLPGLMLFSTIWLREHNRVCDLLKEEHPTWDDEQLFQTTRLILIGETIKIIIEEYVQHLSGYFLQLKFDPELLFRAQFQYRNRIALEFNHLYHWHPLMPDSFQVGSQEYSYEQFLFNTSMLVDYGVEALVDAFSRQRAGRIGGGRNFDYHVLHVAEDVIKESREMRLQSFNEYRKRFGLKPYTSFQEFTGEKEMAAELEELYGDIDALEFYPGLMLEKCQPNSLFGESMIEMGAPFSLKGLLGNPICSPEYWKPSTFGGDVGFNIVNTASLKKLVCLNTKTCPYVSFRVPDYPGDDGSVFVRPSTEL
MEASUREMENT_LABEL: IC50 (nM)

// known answers, use as guide
[
  {
    "SMILES_NOTATION": "COc1ccc(-n2nc(COC(=O)N(O)C(C)C)cc2-c2ccc(Cl)cc2)cc1",
    "ASSAY_SYSTEM": "CO in intact RBL-1 cells (Rattus norvegicus)",
    "MEASUREMENT_LABEL": "IC50",
    "UNITS_SYMBOL": "nM",
    "RECORDED_NUMBER": 540
  },
  {
    "SMILES_NOTATION": "COc1ccc(-n2nc(CCCOC(=O)N(O)C(C)C)c(Br)c2-c2ccc(Cl)cc2)cc1",
    "ASSAY_SYSTEM": "CO in intact RBL-1 cells (Rattus norvegicus)",
    "MEASUREMENT_LABEL": "IC50",
    "UNITS_SYMBOL": "nM",
    "RECORDED_NUMBER": 7000
  },
  {
    "SMILES_NOTATION": "COc1ccc(-n2nc(COC(=O)N(C)O)c(Cl)c2-c2ccc(C)cc2)cc1",
    "ASSAY_SYSTEM": "CO in intact RBL-1 cells (Rattus norvegicus)",
    "MEASUREMENT_LABEL": "IC50",
    "UNITS_SYMBOL": "nM",
    "RECORDED_NUMBER": 150
  }
]

(P) COc1ccc(-n2nc(COC(=O)NO)c(Br)c2-c2ccc(C)cc2)cc1
(Q) COc1ccc(-n2nc(CCCOC(=O)N(C)O)cc2-c2ccc(Cl)cc2)cc1
Query string: Between the entries labelled P and Q , which has a larger IC50 value on record? The response must carry the label of the picked entry.
Result string: P
